# PROCEDURE SUMMARY: Accelerated stability study of coated 0.625 mg conjugated estrogens tablets (active compounds and degradation products per USP, LOD)
# Type: physicochemical
# EXPERIMENTAL PARAMETERS: sugar-coated tablets, Lot EXPWS 1246; 50c, 75% RH/2 wks
Use met when the recorded % Found is no lower than 4%; use not met when it is lower.

## Input Textbook exercise: given the entry C[C@]12CC[C@@H]3c4ccc(O)cc4CC[C@H]3[C@@H]1CC[C@H]2O [17a-estradiol] , state whether its % Found is greater than or equal to 4%.
## Output not met

## Input Now the same for C[C@]12CCc3c(ccc4cc(O)ccc34)[C@@H]1CCC2=O
## Output not met

## Input Now the same for C[C@]12CCc3c(ccc4cc(O)ccc34)C1CCC2O (stereo partly drawn) [17b-dihydroequilenin]
## Output not met

## Input Now the same for C[C@]12CC[C@@H]3c4ccc(O)cc4CC[C@H]3[C@@H]1CC[C@@H]2O [17b-estradiol]
## Output not met

## Input Now the same for C[C@]12CC[C@H]3C(=CCc4cc(O)ccc43)[C@@H]1CCC2=O
## Output met

## Input Now the same for C[C@]12CC[C@H]3C(=CCc4cc(O)ccc43)[C@@H]1CC[C@@H]2O [17b-dihydroequilin]
## Output not met

## Input Now the same for C[C@]12CCc3c(ccc4cc(O)ccc34)[C@@H]1CC[C@H]2O [17a-dihydroequilenin]
## Output not met

## Input Now the same for C[C@]12CC[C@H]3C(=CCc4cc(O)ccc43)[C@@H]1CC[C@H]2O [17a-dihydroequilin]
## Output met

## Input Now the same for C[C@]12CCC3=C(CCc4cc(O)ccc43)[C@@H]1CCC2=O [d8,9 dehydroesterone]
## Output met

###

# PROCEDURE SUMMARY: Accelerated stability study of coated 0.625 mg conjugated estrogens tablets (active compounds and degradation products per USP, LOD)
# Assay type: physicochemical
# EXPERIMENTAL PARAMETERS: acrylic-coated tablets, Lot EXPWS 1251; 40c, 75% RH/1m
MEASUREMENT KIND: % Found (%)
Write down the numeric answer in % and omit the unit.

Below are worked cases with known answers.
COMPOUND | READING
C[C@]12CC[C@H]3C(=CCc4cc(O)ccc43)[C@@H]1CC[C@@H]2O [17b-dihydroequilin] | 2.6
C[C@]12CC[C@@H]3c4ccc(O)cc4CC[C@H]3[C@@H]1CC[C@@H]2O [17b-estradiol] | 0.90
C[C@]12CCc3c(ccc4cc(O)ccc34)[C@@H]1CCC2=O | 2.3

## Input # lookup: % Found of C[C@]12CC[C@@H]3c4ccc(O)cc4CC[C@H]3[C@@H]1CC[C@H]2O [17a-estradiol]
## Output 4.7

## Input Now the same for C[C@]12CCc3c(ccc4cc(O)ccc34)C1CCC2O (some centres unmarked) [17b-dihydroequilenin]
## Output 0.97

###

# PROCEDURE SUMMARY: Accelerated stability study of coated 0.625 mg conjugated estrogens tablets (active compounds and degradation products per USP, LOD)
# Type: physicochemical
# EXPERIMENTAL PARAMETERS: acrylic-coated tablets, Lot EXPWS 1251; 40c, 75% RH/1m
MEASUREMENT KIND: % Found (%)
Write down the numeric answer in % and omit the unit.

Below are worked cases with known answers.
COMPOUND | % Found, %
C[C@]12CC[C@H]3C(=CCc4cc(O)ccc43)[C@@H]1CC[C@H]2O [17a-dihydroequilin] | 17.9
C[C@]12CCc3c(ccc4cc(O)ccc34)[C@@H]1CC[C@H]2O [17a-dihydroequilenin] | 2.03
C[C@]12CCC3=C(CCc4cc(O)ccc43)[C@@H]1CCC2=O [d8,9 dehydroesterone] | 4.13

Note: attention shifts to another entry.
## Input # lookup: % Found of C[C@]12CC[C@H]3C(=CCc4cc(O)ccc43)[C@@H]1CCC2=O
## Output 27.1

###

# PROCEDURE SUMMARY: Accelerated stability study of coated 0.625 mg conjugated estrogens tablets (active compounds and degradation products per USP, LOD)
# Type: physicochemical
# EXPERIMENTAL PARAMETERS: acrylic-coated tablets, Lot EXPWS 1251; 50c, 75% RH/2 wks
# Excerpt: Stability was monitored under different storage conditions.
MEASUREMENT KIND: % Initial
Answer with the value and then the unit.

Below are worked cases with known answers.
COMPOUND | % Initial
C[C@]12CCC3=C(CCc4cc(O)ccc43)[C@@H]1CCC2=O [d8,9 dehydroesterone] | 98.1%
C[C@]12CC[C@H]3C(=CCc4cc(O)ccc43)[C@@H]1CCC2=O | 97.1%
C[C@]12CC[C@H]3C(=CCc4cc(O)ccc43)[C@@H]1CC[C@H]2O [17a-dihydroequilin] | 97.2%
C[C@]12CC[C@H]3C(=CCc4cc(O)ccc43)[C@@H]1CC[C@@H]2O [17b-dihydroequilin] | 95.7%

## Input # lookup: % Initial of C[C@]12CCc3c(ccc4cc(O)ccc34)[C@@H]1CCC2=O
## Output 113.6%

## Input Now the same for C[C@]12CCc3c(ccc4cc(O)ccc34)C1CCC2O (stereo partly drawn) [17b-dihydroequilenin]
## Output 87.0%

## Input Now the same for C[C@]12CCc3c(ccc4cc(O)ccc34)[C@@H]1CC[C@H]2O [17a-dihydroequilenin]
## Output 108.5%

## Input Now the same for C[C@]12CC[C@@H]3c4ccc(O)cc4CC[C@H]3[C@@H]1CC[C@H]2O [17a-estradiol]
## Output 97.8%

## Input Now the same for C[C@]12CC[C@@H]3c4ccc(O)cc4CC[C@H]3[C@@H]1CC[C@@H]2O [17b-estradiol]
## Output 88.1%

###

# maps each entry to its % Initial
# PROCEDURE SUMMARY: Accelerated stability study of coated 0.625 mg conjugated estrogens tablets (active compounds and degradation products per USP, LOD)
# Format: physicochemical
# EXPERIMENTAL PARAMETERS: sugar-coated tablets, Lot EXPWS 1246; 40c, 75% RH/1 mnth
Write down the numeric answer in % and omit the unit.

COMPOUND | READING
C[C@]12CC[C@@H]3c4ccc(O)cc4CC[C@H]3[C@@H]1CC[C@@H]2O [17b-estradiol] | 93.3

## Input # lookup: % Initial of C[C@]12CC[C@H]3C(=CCc4cc(O)ccc43)[C@@H]1CC[C@@H]2O [17b-dihydroequilin]
## Output 100.0

###

# PROCEDURE SUMMARY: Accelerated stability study of coated 0.625 mg conjugated estrogens tablets (active compounds and degradation products per USP, LOD)
# Format: physicochemical
# EXPERIMENTAL PARAMETERS: sugar-coated tablets, Lot EXPWS 1246; 40c, 75% RH/1 mnth
We label by threshold. Values of % Found strictly beneath 3% are satisfied. Values of 3% and up are not satisfied.

Examples with answers:
COMPOUND | ANSWER LABEL
C[C@]12CCc3c(ccc4cc(O)ccc34)[C@@H]1CC[C@H]2O [17a-dihydroequilenin] | satisfied
C[C@]12CC[C@@H]3c4ccc(O)cc4CC[C@H]3[C@@H]1CC[C@H]2O [17a-estradiol] | not satisfied
C[C@]12CC[C@@H]3c4ccc(O)cc4CC[C@H]3[C@@H]1CC[C@@H]2O [17b-estradiol] | satisfied
C[C@]12CC[C@H]3C(=CCc4cc(O)ccc43)[C@@H]1CC[C@H]2O [17a-dihydroequilin] | not satisfied
C[C@]12CCc3c(ccc4cc(O)ccc34)[C@@H]1CCC2=O [Equilenin] | satisfied

## Input Is % Found of C[C@]12CCC3=C(CCc4cc(O)ccc43)[C@@H]1CCC2=O [d8,9 dehydroesterone] strictly below 3%?
## Output not satisfied

## Input Now the same for C[C@]12CCc3c(ccc4cc(O)ccc34)C1CCC2O (stereo partly drawn) [17b-dihydroequilenin]
## Output satisfied

## Input Now the same for C[C@]12CC[C@H]3C(=CCc4cc(O)ccc43)[C@@H]1CC[C@@H]2O [17b-dihydroequilin]
## Output satisfied

## Input Now the same for C[C@]12CC[C@H]3C(=CCc4cc(O)ccc43)[C@@H]1CCC2=O [Equilin]
## Output not satisfied

###

# PROCEDURE SUMMARY: Accelerated stability study of coated 0.625 mg conjugated estrogens tablets (active compounds and degradation products per USP, LOD)
# Format: physicochemical
# EXPERIMENTAL PARAMETERS: acrylic-coated tablets, Lot EXPWS 1251; initial % found versus 40c, 75% RH/3m
# Excerpt: Stability was monitored under different storage conditions.
# maps each entry to its Change
Please reply with the value in numeric form only.

Below are worked cases with known answers.
COMPOUND | Change
C[C@]12CC[C@@H]3c4ccc(O)cc4CC[C@H]3[C@@H]1CC[C@@H]2O [17b-estradiol] | 0.38
C[C@]12CC[C@H]3C(=CCc4cc(O)ccc43)[C@@H]1CC[C@H]2O [17a-dihydroequilin] | −0.2
C[C@]12CC[C@@H]3c4ccc(O)cc4CC[C@H]3[C@@H]1CC[C@H]2O [17a-estradiol] | −0.2

Note: attention shifts to another entry.
## Input # lookup: Change of C[C@]12CCc3c(ccc4cc(O)ccc34)C1CCC2O (stereo partly shown) [17b-dihydroequilenin]
## Output 0.09
